Every entry's value here was drawn from ChEMBL document CHEMBL1201862.

# Test system: UACC-257
# EXPERIMENT_DESCRIPTION: NCI tumour cell line growth inhibition, 48 h
The source made the active and inactive calls. No stated cut-off is given here; in the data, active = GI50 up to about 1.1 µM and inactive = higher.
RECORDED_ENDPOINT: GI50

INSERT INTO measurements (compound, reported_measurement) VALUES
  ('Nc1nc(CCc2n[nH]c(N)n2)n[nH]1', '> 100 µM (inactive)'),
  ('CN(C)Cc1ccc(C(C)(C)C)cc1-c1cc(C(C)(C)C)ccc1CN(C)C', '21.6 µM (inactive)'),
  ('O=c1cc(N2CCCC2)[nH]c(=O)n1-c1ccccc1', '> 100 µM (inactive)'),
  ('COc1c(CCl)cc(-c2cc(=O)c3ccccc3s2)cc1CCl', '> 100 µM (inactive)'),
  ('COC(=O)CNS(=O)(=O)c1ccc(-c2c3nc(c(-c4ccc(S(=O)(=O)NCC(=O)OC)cc4)c4ccc([nH]4)c(-c4ccc(S(=O)(=O)NCC(=O)OC)cc4)c4nc(c(-c5ccc(S(=O)(=O)NCC(=O)OC)cc5)c5ccc2[nH]5)C=C4)C=C3)cc1', '> 100 µM (inactive)'),
  ('C=C1c2nc3ccccc3n2C=C(c2ccc(OC)cc2)N1c1ccccc1', '13.3 µM (inactive)'),
  ('CC(C)CC1[C@@H](OCc2ccccc2)COS(=O)(=O)N1Cc1ccccc1 (some centres not stated)', '> 100 µM (inactive)'),
  ('CC1c2cc(c3c(c2O)CN([C@@H](C)C2CCCCC2)CO3)C(C)c2cc(c3c(c2O)CN([C@@H](C)C2CCCCC2)CO3)C(C)c2cc(c3c(c2O)CN([C@@H](C)C2CCCCC2)CO3)C(C)c2cc1c1c(c2O)CN([C@@H](C)C2CCCCC2)CO1 (some centres not stated)', '1.66 µM (inactive)'),
  ('Cc1cc(N(CCC#N)CCC#N)ccc1/C=C(\NC(=O)/C=C/c1ccccc1)C(=O)Nc1ccccc1Cl', '> 100 µM (inactive)'),
  ('CNC(=S)N/N=C(\C)c1nc2cccnc2[nH]1', '60.8 µM (inactive)'),
  ('COC(=O)CCC(NC(=S)N/N=C(\C)c1nccs1)C(=O)OC (configuration not stated)', '> 100 µM (inactive)'),
  ('CCOC(=O)C(C/C=C/CO)N(C)C(=O)OC(C)(C)C (configuration not stated)', '> 100 µM (inactive)'),
  ('CCCCCCCCCCCCCCCCCCNc1ccn(C2OC(COP(=O)(O)OCC3OC(n4ccc(N)nc4=O)C(O)C3O)C(O)C2O)c(=O)n1 (configuration not stated)', '> 100 µM (inactive)'),
  ('Cc1ccccc1NC(=O)c1nc(S)nc(N)c1-c1ccccc1C', '> 100 µM (inactive)'),
  ('C=CC1(C)CCC2=C(CCC3C(C)(C(=O)OC)CCCC23C)C1=O (configuration not stated)', '22.8 µM (inactive)'),
  ('C/C(=N\NC(N)=S)C(CN(CC(C)C)CC(C)C)C(=O)Nc1ccc(C)cc1C (configuration not stated)', '> 100 µM (inactive)'),
  ('O=S(=O)(Oc1ccc2ccccc2c1-c1c(OS(=O)(=O)C(F)(F)F)ccc2ccccc12)C(F)(F)F', '1.32 µM (inactive)'),
  ('COc1cc(C2C3=C(N=C4SC(C(C)=O)=C(C)N42)c2ccccc2CC3)cc(OC)c1OC (configuration not stated)', '> 100 µM (inactive)'),
  ('O=C(C1C(c2ccccc2)N1C(c1ccccc1)c1ccccc1)C1C(c2ccccc2)N1C(c1ccccc1)c1ccccc1 (configuration not stated)', '18.5 µM (inactive)'),
  ('CC(C)OC(=O)OCSc1ccccc1/N=C/c1cccc([N+](=O)[O-])c1', '> 10 µM (inactive)'),
  ('O=C1C(Cl)C(c2ccccc2Cl)N1n1cnc2ccccc2c1=O (configuration not stated)', '37.2 µM (inactive)'),
  ('CCN(CC)CCCNc1ncc(C)c2c1c1ccc3c(O)cccc3c1n2C', '16.3 µM (inactive)'),
  ('CCOC(=O)c1csc(NC(=O)C(C)N2CCCCC2)n1 (configuration not stated)', '> 100 µM (inactive)'),
  ('CN(c1ccc(Cl)cc1)S(=O)(=O)c1ccc([N+](=O)[O-])cc1', '> 100 µM (inactive)'),
  ('COc1ccc(/C=C/C(=N/NC(=O)N/N=C(/C=C/c2ccc(OC)cc2)C(C)(C)CN2CCCCC2)C(C)(C)CN2CCCCC2)cc1', '1.86 µM (inactive)'),
  ('N#Cc1nc(COCCOCc2ccc(F)cc2)oc1N', '> 100 µM (inactive)'),
  ('N#CC1C(=O)C(=O)N(c2ccccc2)C1=O (configuration not stated)', '> 100 µM (inactive)'),
  ('Cc1ccccc1C1=[N+]([O-])c2ccc(Cl)cc2C1=O', '13.1 µM (inactive)'),
  ('O=C(O)c1nc(-c2ccc(Cl)c(Cl)c2)nc2ccc(Cl)cc12', '> 100 µM (inactive)'),
  ('O=C(/C=C/c1ccccc1)NNC(=O)c1c(Cl)c(Cl)c(Cl)c(Cl)c1-c1nc2ccccc2[nH]1', '27.7 µM (inactive)'),
  ('CC(=O)NNc1nc(C)c(C(/C=C/c2ccc(Cl)cc2)=N\NS(=O)(=O)c2ccc(C)cc2)s1', '> 100 µM (inactive)'),
  ('O=[N+]([O-])c1ccc(Sc2c3ccccc3nc3ccccc23)cn1', '15.5 µM (inactive)'),
  ('CC(=O)[C@H]1CC[C@@H]2[C@]1(C)CC=C1[C@]23C=C[C@]2(C[C@@H](O)CC[C@]12C)C(C(=O)O)C3C(=O)O (some centres not stated)', '> 100 µM (inactive)'),
  ('Cc1ccc(Oc2ccc(C(=O)c3cccc(C(=O)c4ccc(Oc5ccc(C)cc5)cc4)n3)cc2)cc1', '> 100 µM (inactive)'),
  ('CCCN(CCCCC(NC(C)=O)C(=O)NCc1ccccc1)C(=O)N(C)N=O (configuration not stated)', '> 100 µM (inactive)'),
  ('COc1ccc(N(c2ccc(C#N)cc2)c2ccc(C#N)cc2)cc1', '> 100 µM (inactive)'),
  ('CCCNC(=O)OCc1c(COC(=O)NCCC)c(-c2ccc(Cl)c(Cl)c2)n2c1CCC2', '4.79 µM (inactive)');
